Target: T1, GIP receptor (UniProt P48546 22-466)
T1 sequence (looked up): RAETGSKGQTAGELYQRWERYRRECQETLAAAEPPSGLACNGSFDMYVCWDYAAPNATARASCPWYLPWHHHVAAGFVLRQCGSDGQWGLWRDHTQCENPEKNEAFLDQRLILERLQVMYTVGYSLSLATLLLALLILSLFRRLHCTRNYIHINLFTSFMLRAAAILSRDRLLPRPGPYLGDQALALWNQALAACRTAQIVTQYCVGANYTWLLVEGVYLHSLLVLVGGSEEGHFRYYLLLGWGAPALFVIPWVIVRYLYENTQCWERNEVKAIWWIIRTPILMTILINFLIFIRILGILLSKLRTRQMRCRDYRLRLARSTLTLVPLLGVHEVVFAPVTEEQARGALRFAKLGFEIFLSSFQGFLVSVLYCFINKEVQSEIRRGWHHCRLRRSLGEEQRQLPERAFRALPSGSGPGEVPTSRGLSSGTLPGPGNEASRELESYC
Assay: cell-based or functional assay
Bridges are numbered along the chain shown (N, C = ends). Primed or numbered codes have the meaning given here. Where no end group is shown, it is not given here. Side-chain parts run from the residue outwards. [ ]: non-standard residue; d: D form. maleimide = maleimide group on activated PEG, it reacts with the Cys thiol (Michael addition) to give a thioether linkage; PEG 40 kDa″ = polyethylene glycol of 40 kDa covalently attached to the side chain; PEG 40 kDa = PEG (40 kDa) covalently attached to Cys; Aib = CC(C)(N)C(=O)O
Checkbox rule: relative activity lower than 1% = true; relative activity not lower than 1% = false.

Observe how each entry below is paired with its result.
INSERT INTO assay_data (binder, categorylabel) VALUES
  ('Y[Aib]QGTFTSDYSIYLDEQAAKEFVC(PEG 40 kDa)WLLAG-NH2 (lactam 16-20) [mt-172]', 'true'),
  ('Y[Aib]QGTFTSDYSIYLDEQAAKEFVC(PEG 40 kDa″)WLMNG-NH2 (lactam 16-20) [mt-186]', 'true'),
  ('Y[Aib]QGTFTSDYSIYLDEQAAKEFVNWLLAGKGKKNWLKHNITQC-NH2 (lactam 16-20) [mt-207]', 'false'),
  ('Y[Aib]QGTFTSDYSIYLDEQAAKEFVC(PEG 40 kDa)WLLAGGPSSGAPPPS-NH2 (lactam 16-20) [mt-175]', 'true'),
  ('Y[Aib]QGTFTSEYSKYLDEQAAKEFVNWLLAGGPSSGAPPPSC-NH2 (lactam 9-12, 16-20; not fully specified) [mt-209]', 'false');

Exercise: I wonder whether Y[Aib]EGTFTSDYSIYLDEQAAKEFVNWLLAGGPSSGAPPPSC([maleimide-PEG 40 kDa])-NH2 (lactam 16-20) [mt-178] has relative activity below 1%. Can you tell?
Solution: false
